# targetOfAssay: neurokinin-1 (NK-1) receptor (Homo sapiens, UniProt P25103)
# Construct: endogenously expresses the neurokinin-1 (NK-1) receptor; endogenous in cells; host or cells: U373 human glioblastoma-astrocytoma cells (membranes)
# Sequence (P25103 whole entry): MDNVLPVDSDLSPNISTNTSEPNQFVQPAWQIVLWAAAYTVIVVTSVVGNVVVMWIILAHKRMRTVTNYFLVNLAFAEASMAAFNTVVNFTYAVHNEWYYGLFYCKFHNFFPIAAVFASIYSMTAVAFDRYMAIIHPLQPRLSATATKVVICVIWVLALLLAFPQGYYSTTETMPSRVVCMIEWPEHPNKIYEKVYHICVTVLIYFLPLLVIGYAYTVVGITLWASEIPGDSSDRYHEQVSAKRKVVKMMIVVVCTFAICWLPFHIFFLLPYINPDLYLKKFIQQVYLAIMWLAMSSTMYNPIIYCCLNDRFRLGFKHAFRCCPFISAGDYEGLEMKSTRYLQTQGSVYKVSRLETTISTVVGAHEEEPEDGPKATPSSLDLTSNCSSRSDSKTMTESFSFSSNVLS
# assayMethodText: NK-1 Binding assay ([125I] Substance P competition, U373 cell membranes)
# experimentalSetup: Bolton Hunter labeled [125I] Substance P, 30 min at 20° C.
# Protocol: NK-1 Binding assay. […] On the day of an experiment the membrane preparation was thawed, homogenized and diluted with NK-1 binding assay buffer to the appropriate concentration. […] The amount of radioligand bound in the presence and absence of competitor was analyzed by plotting (−)log drug concentration versus the amount of radioligand specifically bound. […]
recordedEndpoint: IC50

[[record]]
compound = "CN(C)c1ccc(C(O)(CCN)COCc2cc(C(F)(F)F)cc(C(F)(F)F)c2)cc1 (centres unmarked) [Example 16]"
recordedendpoint = "IC50"
result = "> 300 nM"

[[record]]
compound = "CNCC(C)(COCc1cc(C(F)(F)F)cc(C(F)(F)F)c1)c1ccccc1 (centres unmarked) [Example 78]"
recordedendpoint = "IC50"
result = "100 to 300 nM"

[[record]]
compound = "CNCCC(C)(COCc1cc(C(F)(F)F)cc(C(F)(F)F)c1)c1ccccc1 (centres unmarked) [Example 75]"
recordedendpoint = "IC50"
result = "1 to 100 nM"

[[record]]
compound = "COc1ccccc1COCC(O)(CCN)c1ccccc1 (centres unmarked) [Example 62]"
recordedendpoint = "IC50"
result = "> 300 nM"

[[record]]
compound = "Cc1cc(C)cc(COCC(O)(CCN)c2ccccc2)c1 (centres unmarked) [Example 53]"
recordedendpoint = "IC50"
result = "1 to 100 nM"


Input line: Returns the measured IC50 for the input compound. Input: Cc1cccc(COCC(O)(CCN)c2ccccc2)c1 (centres unmarked) [Example 60]
Output line: > 300 nM

Input line: Returns the measured IC50 for the input compound. Input: COc1ccc(OC)c(C(O)(CCN)COCc2cc(C(F)(F)F)cc(C(F)(F)F)c2)c1 (centres unmarked) [Example 27]
Output line: 100 to 300 nM

Input line: Returns the measured IC50 for the input compound. Input: CN(C)CCC(C)(COCc1cc(C(F)(F)F)cc(C(F)(F)F)c1)c1ccccc1 (centres unmarked) [Example 76]
Output line: 100 to 300 nM

Input line: Returns the measured IC50 for the input compound. Input: NCCC(O)(COCc1cc(C(F)(F)F)cc(C(F)(F)F)c1)c1cccc(F)c1 (centres unmarked) [Example 12]
Output line: 1 to 100 nM

Input line: Returns the measured IC50 for the input compound. Input: COc1ccc(C(O)(CCN)COCc2cc(C(F)(F)F)cc(C(F)(F)F)c2)cc1 (centres unmarked) [Example 20]
Output line: 100 to 300 nM

Input line: Returns the measured IC50 for the input compound. Input: CN(C)CCC(O)(COCc1cc(C(F)(F)F)cc(C(F)(F)F)c1)c1ccccc1 (centres unmarked) [Example 5]
Output line: 1 to 100 nM

###

Catalogue of pIC50 values
# targetOfAssay: neurokinin-1 (NK-1) receptor (Homo sapiens, UniProt P25103)
# Construct: endogenously expresses the neurokinin-1 (NK-1) receptor; endogenous in cells
# assayMethodText: NK-1 Binding assay ([125I] Substance P competition, U373 cell membranes)
# experimentalSetup: Bolton Hunter labeled [125I] Substance P, 30 min at 20° C.
pIC50: −log10 of the molar value.

Worked cases, answers included:
[[record]]
compound = "COc1ccc(C(O)(CCN)COCc2cc(C(F)(F)F)cc(C(F)(F)F)c2)cc1OC (stereo not drawn) [Example 39]"
result = "6.52 to 7.00"

[[record]]
compound = "NCCC(COCc1cc(C(F)(F)F)cc(C(F)(F)F)c1)c1ccccc1 (stereo not drawn) [Example 71]"
result = "7.00 to 9.00"

[[record]]
compound = "COc1ccc(C(O)(CCN)COCc2cc(C(F)(F)F)cc(C(F)(F)F)c2)cc1F (stereo not drawn) [Example 23]"
result = "7.00 to 9.00"


Input line: Returns the measured pIC50 for the input compound. Input: NCCC(O)(COCc1ccccc1)c1ccccc1 (stereo not drawn) [Example 47, 4-amino-1-(benzyloxy)-2-phenylbutan-2-ol]
Output line: < 6.52

Input line: Returns the measured pIC50 for the input compound. Input: CCc1ccc(C(O)(CCN)COCc2cc(C(F)(F)F)cc(C(F)(F)F)c2)cc1 (stereo not drawn) [Example 38]
Output line: 6.52 to 7.00

Input line: Returns the measured pIC50 for the input compound. Input: CCCc1ccc(C(O)(CCN)COCc2cc(C(F)(F)F)cc(C(F)(F)F)c2)cc1 (stereo not drawn) [Example 35]
Output line: < 6.52

Input line: Returns the measured pIC50 for the input compound. Input: Cc1c(F)cccc1C(O)(CCN)COCc1cc(C(F)(F)F)cc(C(F)(F)F)c1 (stereo not drawn) [Example 36]
Output line: 7.00 to 9.00

Input line: Returns the measured pIC50 for the input compound. Input: NCCC(O)(COCc1ccc(Cl)cc1)c1ccccc1 (stereo not drawn) [Example 70]
Output line: < 6.52

Input line: Returns the measured pIC50 for the input compound. Input: CC(CCN)(COCc1cc(C(F)(F)F)cc(C(F)(F)F)c1)c1ccccc1 (stereo not drawn) [Example 74]
Output line: 7.00 to 9.00
